experiment: Peptide stability in simulated intestinal fluid (SIF); assay type: in vitro ADME; conditions: pig, simulated intestinal fluid (SIF) with porcine pancreatin, Table 3-2, porcine pancreatin, pH 6.8, 37° C., 10 μM, 4 h, read-out: SIF (% remaining 4 h)
*1 amine or outer side, *2 acyl side, *3 side chain or, on linkers, in order; H or OH if unused. Where a SMILES comes first, the peptide text is derived from it. Bridges are numbered along the chain shown (N, C = ends). [ ]: non-standard residue; d: D form. αMeAla(3-pyridyl) = C[C@](N)(Cc1cccnc1)C(=O)O; X10 = C[C@@](Cc1ccc(F)cc1)(N[*:1])C(=O)[*:2]; Phe(3,4-Me2) = Cc1ccc(C[C@H](N)C(=O)O)cc1C; Bip = N[C@@H](Cc1ccc(-c2ccccc2)cc1)C(=O)O; αMeW = C[C@](N)(Cc1c[nH]c2ccccc12)C(=O)O; dPhe(4-F) = N[C@H](Cc1ccc(F)cc1)C(=O)O; 2Nal = N[C@@H](Cc1ccc2ccccc2c1)C(=O)O; AEF = NCCOc1ccc(C[C@H](N)C(=O)O)cc1; X1 = O=C(Cc1ccc(CN[*:1])cc1)[*:2]; αMeL = CC(C)C[C@](C)(N)C(=O)O; CH2COCH2 = O=C(C[*:1])C[*:2]; αMeV = CC(C)[C@](C)(N)C(=O)O; 3Amb = NCc1cccc(C(=O)O)c1; Dab = NCC[C@H](N)C(=O)O
Entries whose remaining at 4 h, 10 μM is below 60% take 1; entries at or above 60% take -1.

Hello, is remaining at 4 h, 10 μM of the following compound strictly smaller than 60%? CC(=O)N[C@@H](CC(=O)O)C(=O)N[C@H]1CCC(=O)NCCCC[C@@H](C(=O)N[C@@H](CCCNC(=N)N)C(N)=O)NC(=O)[C@](C)(CC(C)C)NC(=O)[C@H](Cc2ccc3ccccc3c2)NC(=O)[C@H](Cc2c[nH]c3ccccc23)NC(=O)[C@@H]2CSCC(=O)CSC[C@H](NC(=O)[C@H]([C@@H](C)O)NC1=O)C(=O)N[C@@H](Cc1c[nH]c3ccccc13)C(=O)N[C@@H](CCC(N)=O)C(=O)N2 [Compound 57] (Ac-DETCWQCW[2Nal][αMeL]KR-NH2; lactam 2-11; linker 4-7 via CH2COCH2)
1

Hello, is remaining at 4 h, 10 μM of the following compound strictly smaller than 60%? CC[C@H](C)[C@@H]1NC(=O)Cc2ccc(cc2)CNC(=O)CC[C@@H](C(=O)N[C@@H](CCN)C(=O)N[C@@](C)(Cc2cccnc2)C(N)=O)NC(=O)[C@](C)(C(C)C)NC(=O)[C@H](Cc2ccc(C)c(C)c2)NC(=O)[C@](C)(Cc2c[nH]c3ccccc23)NC(=O)[C@@H]2CCNC(=O)CC[C@H](NC1=O)C(=O)N[C@@H](Cc1c[nH]c3ccccc13)C(=O)N[C@@H](CCC(N)=O)C(=O)N2 [Compound 172] ([X1]IEWQ[Dab][αMeW][Phe(3,4-Me2)][αMeV]E[Dab][αMeAla(3-pyridyl)]-NH2; lactam 3-6, N-10)
-1

Hello, is remaining at 4 h, 10 μM of the following compound strictly smaller than 60%? CC[C@H](C)[C@@H]1NC(=O)Cc2ccc(cc2)CNC(=O)CC[C@@H](C(=O)N[C@@H](CCN)C(=O)N[C@@](C)(Cc2cccnc2)C(N)=O)NC(=O)[C@](C)(C(C)C)NC(=O)[C@H](Cc2ccc(C)c(C)c2)NC(=O)[C@@H](Cc2ccc(F)cc2)NC(=O)[C@@H]2CCNC(=O)CC[C@H](NC1=O)C(=O)N[C@@H](Cc1c[nH]c3ccccc13)C(=O)N[C@@H](CCC(N)=O)C(=O)N2 [Compound 170] ([X1]IEWQ[Dab][dPhe(4-F)][Phe(3,4-Me2)][αMeV]E[Dab][αMeAla(3-pyridyl)]-NH2; lactam 3-6, N-10)
-1

Hello, is remaining at 4 h, 10 μM of the following compound strictly smaller than 60%? CC[C@H](C)[C@@H]1NC(=O)Cc2ccc(cc2)CNC(=O)CC[C@@H](C(=O)N[C@@H](CCN)C(=O)N[C@@](C)(Cc2cccnc2)C(N)=O)NC(=O)[C@](C)(C(C)C)NC(=O)[C@H](Cc2ccc(C)c(C)c2)NC(=O)[C@H](Cc2ccc(-c3ccccc3)cc2)NC(=O)[C@@H]2CCNC(=O)CC[C@H](NC1=O)C(=O)N[C@@H](Cc1c[nH]c3ccccc13)C(=O)N[C@@H](CCC(N)=O)C(=O)N2 [Compound 168] ([X1]IEWQ[Dab][Bip][Phe(3,4-Me2)][αMeV]E[Dab][αMeAla(3-pyridyl)]-NH2; lactam 3-6, N-10)
-1

Hello, is remaining at 4 h, 10 μM of the following compound strictly smaller than 60%? CC(=O)N[C@H]1CCSC[C@@H](C(=O)N[C@@H](Cc2ccc(OCCN)cc2)C(=O)N[C@@H](Cc2c[nH]c3ccccc23)C(=O)N[C@@](C)(CCCCN)C(=O)N[C@@H](CCC(=O)O)C(=O)N[C@@H](CC(N)=O)C(=O)NCC(N)=O)NC(=O)[C@H](CCC(N)=O)NC(=O)[C@H](Cc2c[nH]c3ccccc23)NC(=O)[C@H]([C@@H](C)O)NC(=O)[C@H](CCC(N)=O)NC1=O [Compound C, reference compound]
-1

Hello, is remaining at 4 h, 10 μM of the following compound strictly smaller than 60%? CC(C)C[C@H]1NC(=O)[C@H](Cc2ccc3ccccc3c2)NC(=O)[C@H](Cc2ccc(OCCN)cc2)NC(=O)[C@@H]2CSCC(=O)CSC[C@H](NC(=O)[C@H](CO)NC(=O)c3cccc(c3)CNC(=O)CC[C@@H](C(=O)N[C@@H](Cc3ccc(O)cc3)C(N)=O)NC1=O)C(=O)N[C@@H](Cc1c[nH]c3ccccc13)C(=O)N[C@@H](CCC(N)=O)C(=O)N2 [Compound 46] ([3Amb]SCWQC[AEF][2Nal][dL]EY-NH2; linker 3-6 via CH2COCH2; lactam N-10)
1

Hello, is remaining at 4 h, 10 μM of the following compound strictly smaller than 60%? CC[C@H](C)[C@@H]1NC(=O)Cc2ccc(cc2)CNC(=O)CC[C@@H](C(=O)N[C@@H](CCN)C(=O)N[C@@](C)(Cc2cccnc2)C(N)=O)NC(=O)[C@](C)(C(C)C)NC(=O)[C@H](Cc2ccc(C)c(C)c2)NC(=O)[C@](C)(Cc2ccc(F)cc2)NC(=O)[C@@H]2CCNC(=O)CC[C@H](NC1=O)C(=O)N[C@@H](Cc1c[nH]c3ccccc13)C(=O)N[C@@H](CCC(N)=O)C(=O)N2 [Compound 169] ([X1]IEWQ[Dab][X10][Phe(3,4-Me2)][αMeV]E[Dab][αMeAla(3-pyridyl)]-NH2; lactam 3-6, N-10)
-1

Hello, is remaining at 4 h, 10 μM of the following compound strictly smaller than 60%? CC(=O)N[C@H]1CCCCNC(=O)CC[C@@H](C(=O)N[C@@H](CCCNC(=N)N)C(N)=O)NC(=O)[C@@H](CC(C)C)NC(=O)[C@H](Cc2ccc3ccccc3c2)NC(=O)[C@H](Cc2ccc(OCCN)cc2)NC(=O)[C@@H]2CSCC(=O)CSC[C@H](NC(=O)[C@H](CO)NC1=O)C(=O)N[C@@H](Cc1c[nH]c3ccccc13)C(=O)N[C@@H](CCC(N)=O)C(=O)N2 [Compound 48] (Ac-KSCWQC[AEF][2Nal][dL]ER-NH2; lactam 1-10; linker 3-6 via CH2COCH2)
1

---

Target: human IL-23R (Homo sapiens)
Construct: UniProtKB—Q5VWK5, amino acids 22-629; secretion signal of the plasmid (Promega N1371); expressed in transfected cells
Sequence (Q5VWK5 22-629): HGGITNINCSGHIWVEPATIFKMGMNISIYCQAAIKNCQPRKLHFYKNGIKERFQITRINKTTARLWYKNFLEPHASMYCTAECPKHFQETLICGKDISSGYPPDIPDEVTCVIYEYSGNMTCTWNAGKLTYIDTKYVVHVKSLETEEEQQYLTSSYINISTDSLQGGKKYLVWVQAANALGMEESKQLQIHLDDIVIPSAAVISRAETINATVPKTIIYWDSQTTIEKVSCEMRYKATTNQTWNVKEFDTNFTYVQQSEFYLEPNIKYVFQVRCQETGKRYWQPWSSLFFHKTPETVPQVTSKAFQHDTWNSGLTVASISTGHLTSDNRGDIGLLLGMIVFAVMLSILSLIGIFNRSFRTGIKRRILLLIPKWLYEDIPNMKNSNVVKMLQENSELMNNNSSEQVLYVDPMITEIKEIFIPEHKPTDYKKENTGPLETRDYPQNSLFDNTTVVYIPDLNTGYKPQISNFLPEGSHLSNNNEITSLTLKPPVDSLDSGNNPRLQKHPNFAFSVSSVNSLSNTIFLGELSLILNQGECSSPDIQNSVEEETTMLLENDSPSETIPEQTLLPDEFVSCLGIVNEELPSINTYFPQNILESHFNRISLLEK
Experiment: Binding assay (NanoBRET displacement of fluorophore-labelled reference compound) for estimating binding affinity to human IL-23R
Conditions: Table 3-1; read-out: Ki hIL-23R
*1 amine or outer side, *2 acyl side, *3 side chain or, on linkers, in order; H or OH if unused. Where a SMILES comes first, the peptide text is derived from it. Bridges are numbered along the chain shown (N, C = ends). [ ]: non-standard residue; d: D form. The star is where a group is joined. Trp(7-F) = N[C@@H](Cc1c[nH]c2c(F)cccc12)C(=O)O; Trp(7-Me) = Cc1cccc2c(C[C@H](N)C(=O)O)c[nH]c12; 2Nal = N[C@@H](Cc1ccc2ccccc2c1)C(=O)O; AEF = NCCOc1ccc(C[C@H](N)C(=O)O)cc1; X1 = O=C(Cc1ccc(CN[*:1])cc1)[*:2]; αMeL = CC(C)C[C@](C)(N)C(=O)O; CH2COCH2 = O=C(C[*:1])C[*:2]; 3Amb = NCc1cccc(C(=O)O)c1; Pyrrolidide = C1CCN(*)C1; Dab = NCC[C@H](N)C(=O)O
Could you please report measured pKi for the items listed next?
Note: pKi values are expressed as the negative base-10 logarithm of concentration in M.

Need pKi, item CC(=O)N[C@H]1CCCCNC(=O)CC[C@@H](C(=O)N[C@H](CCCNC(=N)N)C(N)=O)NC(=O)[C@](C)(CC(C)C)NC(=O)[C@H](Cc2ccc3ccccc3c2)NC(=O)[C@H](Cc2ccc(OCCN)cc2)NC(=O)[C@@H]2CSCC(=O)CSC[C@H](NC(=O)[C@H](CO)NC1=O)C(=O)N[C@@H](Cc1c[nH]c3ccccc13)C(=O)N[C@@H](CCC(N)=O)C(=O)N2 [Compound 84] (Ac-KSCWQC[AEF][2Nal][αMeL]E[dR]-NH2; lactam 1-10; linker 3-6 via CH2COCH2)
9.04

Need pKi, item CC(C)C[C@]1(C)NC(=O)[C@H](Cc2ccc3ccccc3c2)NC(=O)[C@H](Cc2ccc(OCCN)cc2)NC(=O)[C@@H]2CCNC(=O)CC[C@H](NC(=O)[C@H](CCC(=O)N3CCCC3)NC(=O)Cc3ccc(cc3)CNC(=O)CC[C@@H](C(=O)N[C@@H](CCN)C(N)=O)NC1=O)C(=O)N[C@@H](Cc1c[nH]c3ccccc13)C(=O)N[C@@H](CCC(N)=O)C(=O)N2 [Compound 145] ([X1]E(Pyrrolidide)EWQ[Dab][AEF][2Nal][αMeL]E[Dab]-NH2; lactam 3-6, N-10)
9.14

Need pKi, item CC(C)C[C@]1(C)NC(=O)[C@H](Cc2ccc3ccccc3c2)NC(=O)[C@H](Cc2ccc(OCCN)cc2)NC(=O)[C@@H]2CCNC(=O)CC[C@H](NC(=O)[C@H](CO)NC(=O)Cc3ccc(cc3)CNC(=O)CC[C@@H](C(=O)N[C@@H](CCN)C(N)=O)NC1=O)C(=O)N[C@@H](Cc1c[nH]c3c(F)cccc13)C(=O)N[C@@H](CCC(N)=O)C(=O)N2 [Compound 139] ([X1]SE[Trp(7-F)]Q[Dab][AEF][2Nal][αMeL]E[Dab]-NH2; lactam 3-6, N-10)
9.21

Need pKi, item Cc1cccc2c(C[C@@H]3NC(=O)[C@@H]4CSCC(=O)CSC[C@H](NC(=O)[C@H](CCC(N)=O)NC3=O)C(=O)N[C@@H](Cc3ccc(OCCN)cc3)C(=O)N[C@@H](Cc3ccc5ccccc5c3)C(=O)N[C@@](C)(CC(C)C)C(=O)N[C@H](C(=O)N[C@@H](CCCNC(=N)N)C(N)=O)CCC(=O)NCc3cccc(c3)C(=O)N[C@@H](CO)C(=O)N4)c[nH]c12 [Compound 70] ([3Amb]SC[Trp(7-Me)]QC[AEF][2Nal][αMeL]ER-NH2; linker 3-6 via CH2COCH2; lactam N-10)
9.31
